assay: Acute intervention: nutrikinetics of plasma metabolites after ingestion of L. citriodora extract (untargeted HPLC-ESI-QTOF-MS); conditions: human plasma, 500 mg capsule of L. citriodora (LC) extract, oral, mean ± SD
Structures can show the parent of a compound that is named as a salt.
Recorded Cmax: relative maximum plasma level for the following molecules

Please review the following examples before continuing.
molecule="CC1=CC(=O)CC(C)(C)C1(O)/C=C/C(C)=C/COC1OC(CO)C(O)C(O)C1O (single isomer, unassigned; isomer 3) [abscisic alcohol 11-glucoside isomer 3, abscisic alcohol 11-glucoside]" observable="Cmax: relative maximum plasma level" result="258 ± 95 relative chromatographic area"
molecule="COc1cc(CCO)ccc1OS(=O)(=O)O [homovanillyl alcohol sulfate]" observable="Cmax: relative maximum plasma level" result="156 ± 49 relative chromatographic area"

Query block: Which Cmax: relative maximum plasma level is reported for this molecule? COc1cc(CCCO)ccc1OC1OC(CO)C(O)C(O)C1O (single isomer, unassigned; isomer 1) [dihydroconiferin isomer 1, dihydroconiferin]
Result block: 139 ± 19 relative chromatographic area

Query block: Give the measured Cmax: relative maximum plasma level of Cc1cccc(O)c1O [3-methylcatechol] .
Result block: 169 ± 59 relative chromatographic area

Query block: What value of measured Cmax: relative maximum plasma level is listed for COc1cc(C=CC(=O)O)ccc1OS(=O)(=O)O [ferulic acid 4-sulfate] ?
Result block: 354 ± 254 relative chromatographic area

Query block: What does the record list as Cmax: relative maximum plasma level for C=C(C)[C@@H]1[C@H]2OC(=O)[C@@H]1[C@]1(O)C[C@H]3O[C@]34C(=O)O[C@H]2[C@]14C [picrotoxinin] ?
Result block: 136 ± 44 relative chromatographic area

Query block: Report Cmax: relative maximum plasma level for COc1cc(C(=O)O)ccc1OS(=O)(=O)O [vanillic acid 4-O-sulfate isomer 2, vanillic acid 4-O-sulfate] please.
Result block: 119 ± 41 relative chromatographic area

Query block: Entry under review: COc1cc(/C=C/C(=O)O)ccc1O[C@@H]1O[C@H](C(=O)O)[C@@H](O)[C@H](O)[C@H]1O [ferulic acid 4-O-glucuronide] . Reported Cmax: relative maximum plasma level?
Result block: 282 ± 358 relative chromatographic area

Query block: Give the measured Cmax: relative maximum plasma level of CC(C)=C1CC2(C)C(=CC1=O)CCC(OC1OC(CO)C(O)C(O)C1O)C2C (stereo not drawn) [isopetasoside] .
Result block: 455 ± 162 relative chromatographic area

====

experiment: Acute intervention: nutrikinetics of plasma metabolites after ingestion of O. europaea extract (untargeted HPLC-ESI-QTOF-MS); conditions: human plasma, 500 mg capsule of O. europaea (OE) extract, oral, mean ± SD
Observable: Cmax: relative maximum plasma level

Examples with their reported Cmax: relative maximum plasma level follow.
compound="COc1cc(C(=O)O)ccc1OS(=O)(=O)O [vanillic acid 4-O-sulfate isomer 1, vanillic acid 4-O-sulfate]" observable="Cmax: relative maximum plasma level" result="489 ± 147 relative chromatographic area"
compound=COc1cc(C(=O)O)cc(OC)c1OC observable="Cmax: relative maximum plasma level" result="120 ± 27 relative chromatographic area"
compound="C[C@]12CC[C@@H](O[C@@H]3O[C@H](C(=O)O)[C@@H](O)[C@H](O)[C@H]3O)C[C@@H]1CC[C@@H]1[C@@H]2C(=O)C[C@@]2(C)[C@H]1CC[C@]2(O)[C@@H](O)CO [cortolone-3-glucuronide]" observable="Cmax: relative maximum plasma level" result="163 ± 88 relative chromatographic area"
compound=COc1cc(-c2oc3cc(O[C@@H]4O[C@@H](C)[C@H](O)[C@@H](O)[C@H]4O)cc(O)c3c(=O)c2O[C@@H]2O[C@H](CO)[C@@H](O)[C@H](O)[C@H]2O)ccc1O observable="Cmax: relative maximum plasma level" result="133 ± 18 relative chromatographic area"
compound="O=C(Oc1cc(O)c2c(c1)O[C@H](c1cc(O)c(O)c(O)c1)[C@H](O)C2)c1cc(O)c(O)c(O)c1 [epigallocatechin 7-O-gallate]" observable="Cmax: relative maximum plasma level" result="126 ± 30 relative chromatographic area"

Query block: May I ask what Cmax: relative maximum plasma level has been recorded for COc1cc(C)cc(OC)c1OC ?
Result block: 221 ± 72 relative chromatographic area
